assay.info: qHTS profiling of the MIPE4 collection as inhibitors of Plasmodium falciparum (DD2) proliferation (AID 743345)
experimental.conditions: P. falciparum Dd2 in erythrocytes, SYBR Green DNA, 72 h; at 28.5 µM (top of the series) unless noted
reported.endpoint: parasite growth remaining, % of DMSO control (lower = more inhibition) (%)
Quick reminder: number only, in %, skip the unit.

Here's what some known entries look like.
1) Cc1cc(Nc2cc(NC(=O)c3c(Cl)cccc3Cl)ccn2)nc(N)n1    6.82
2) COc1cccc2c(NCc3ccccc3)nc(-n3c(N)nc4ccccc43)nc12    5.67
3) Cc1ccc(C(=O)Nc2ccc(CN3CCN(C)CC3)c(C(F)(F)F)c2)cc1C#Cc1cnc2cccnn12    7.34
4) COC(=O)Nc1ccc(-c2nc(N3CCOCC3)c3cnn(C4CCN(Cc5cccnc5)CC4)c3n2)cc1    7.48
5) C=CC(=O)Nc1cc2c(Nc3ccc(F)c(Cl)c3)ncnc2cc1C#CC(C)(C)N1CCN(C)CC1    8.69
6) Cc1cnc(Nc2ccc(F)cc2Cl)nc1-c1c[nH]c(C(=O)N[C@H](CO)c2cccc(Cl)c2)c1    8.92

Value lookup for parasite growth remaining, % of DMSO control (lower = more inhibition); key = `c1ccc2c(CCNc3ccc(Nc4ccncc4)cc3)c[nH]c2c1`
10.6

Now this one: `O=C(NCCS(=O)(=O)c1ccc(C(F)(F)F)cn1)c1ccc(Cl)cc1`
103

Now this one: `COCCn1c2c([n+](Cc3cnccn3)c1C)C(=O)c1ccccc1C2=O`
6.3
